- assayExplanation: chemical genetic growth profiling, strain panel (AID 1159580);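 further: tested at 20 µM; growth read once vehicle control cultures reached saturation at 30 °C; 1 = growth at the plate median or of vehicle wells; lower values mean less growth of the strain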
- cond: S. cerevisiae deletion strains, growth OD, locus YDL035C, strain GPR1, active compounds read low
Hit rate of the full screen: of about 5,500 compounds, about 2,000 (36%) were called active. Inconclusive results (about 18%) are left out. The list shows a part of the results.
valueKind: normalized growth

Would you mind telling me what normalized growth value was observed for "Cc1c(C(N)=O)cc([N+](=O)[O-])cc1[N+](=O)[O-]" ?
0.994 (inactive)

Next: "NC(=O)c1ccc([N+](=O)[O-])cc1Cl"
0.98 (inactive)

And for "NC(=O)c1cc([N+](=O)[O-])cc([N+](=O)[O-])c1" ?
0.992 (inactive)

Another compound to look at: CC(=O)N1CCCC1C(=O)O (configuration not stated)
1.02 (inactive)

What about "CN(C)CC[C@H](c1ccc(Cl)cc1)c1ccccn1" ?
1.02 (inactive)

And the next one, NS(=O)(=O)c1cc2c(cc1C(F)(F)F)NC(Cc1ccccc1)NS2(=O)=O (configuration not stated) ?
1.02 (inactive)

Now consider NC[C@H]1O[C@H](OC2[C@@H](N)C[C@@H](N)[C@H](O[C@H]3O[C@H](CO)[C@@H](O)[C@H](N)[C@H]3O)[C@H]2O)[C@H](O)[C@@H](O)[C@@H]1O (some centres not stated) and answer again.
1.02 (inactive)

----------
- assayExplanation: chemical genetic growth profiling, strain panel (AID 1159580);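 further: tested at 20 µM; growth read once vehicle control cultures reached saturation at 30 °C; 1 = growth at the plate median or of vehicle wells; lower values mean less growth of the strain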
- cond: S. cerevisiae deletion strains, growth OD, locus YOL078W, strain AVO1, active compounds read low
About 2,000 (36%) of roughly 5,500 compounds were called active. Another 18% or so got no clear call; they are omitted. This is one part of the list.
valueKind: normalized growth
Output spec: single numeric token, no unit.

// query normalized growth value for entry "COc1ccc(N=C2SCC(c3ccc(C)cc3)=NN2CCO)cc1"
0.977

"O=C1Nc2ccccc2/C1=C\c1cccc2ccccc12" ?
0.973

Again, but for COc1ccccc1N1CCN(C(=O)C(C)c2ccc(CC(C)C)cc2)CC1 (centres undefined)
0.977

Do the same for "Cc1cc(Br)c(O)c(/C=N\NC(=S)NC(C)(C)C)c1" please
0.982

What about this molecule? "O=C(O/N=C1/CCCc2[nH]c3ccccc3c21)c1ccc(Cl)cc1Cl"
0.971

Let us now turn to "Cc1cc(-c2onc(C)c2C(=O)Sc2ccccc2)no1"
0.918

// repeat for "Cc1ccc(Sc2ncccc2NS(=O)(=O)c2ccc(Cl)cc2)cc1" and report
0.94

Item: "Cc1ccc(OS(=O)(=O)c2c(Cl)sc(Cl)c2Br)c([N+](=O)[O-])n1"
0.967

Consider next the molecule "O=c1[nH][nH]c(=O)n1CCCc1cc2cccc3ccc4cccc1c4c32" in the same way.
0.993

----------
Give measured normalized growth for each item. Keep answers brief.
- assayExplanation: chemical genetic growth profiling, strain panel (AID 1159580);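 further: tested at 20 µM; growth read once vehicle control cultures reached saturation at 30 °C; 1 = growth at the plate median or of vehicle wells; lower values mean less growth of the strain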
- cond: S. cerevisiae deletion strains, growth OD, locus YDR001C, strain nth1, active compounds read low
Screen size: about 5,500 compounds; about 2,000 (36%) were called active. About 18% were inconclusive and are not listed. Some of the results follow.
Respond numerically, and do not add a unit to the figure.

Please give the measured normalized growth for this compound: "C[N+]1(C)C[C@H](O)[C@H](C(=O)[O-])C1"
1.01

"O=S(=O)(O)O" ?
0.987

Entry to check: CC1=C2C(O)C(=O)OC3CC4C(C)(C)C(=O)C=C[C@]4(C)C(CC1)[C@]23C (some centres undefined)
1

Query CC(=O)OCC(=O)[C@@]1(O)CCC2C3C[C@H](C)C4=CC(=O)C=CC4(C)C3[C@@H](O)CC21C (some centres undefined) next
1.01
